// IC50 lookup, one value per entry
Biological target: Sodium-dependent serotonin transporter (Homo sapiens, UniProt P31645)
Sequence (P31645 whole entry): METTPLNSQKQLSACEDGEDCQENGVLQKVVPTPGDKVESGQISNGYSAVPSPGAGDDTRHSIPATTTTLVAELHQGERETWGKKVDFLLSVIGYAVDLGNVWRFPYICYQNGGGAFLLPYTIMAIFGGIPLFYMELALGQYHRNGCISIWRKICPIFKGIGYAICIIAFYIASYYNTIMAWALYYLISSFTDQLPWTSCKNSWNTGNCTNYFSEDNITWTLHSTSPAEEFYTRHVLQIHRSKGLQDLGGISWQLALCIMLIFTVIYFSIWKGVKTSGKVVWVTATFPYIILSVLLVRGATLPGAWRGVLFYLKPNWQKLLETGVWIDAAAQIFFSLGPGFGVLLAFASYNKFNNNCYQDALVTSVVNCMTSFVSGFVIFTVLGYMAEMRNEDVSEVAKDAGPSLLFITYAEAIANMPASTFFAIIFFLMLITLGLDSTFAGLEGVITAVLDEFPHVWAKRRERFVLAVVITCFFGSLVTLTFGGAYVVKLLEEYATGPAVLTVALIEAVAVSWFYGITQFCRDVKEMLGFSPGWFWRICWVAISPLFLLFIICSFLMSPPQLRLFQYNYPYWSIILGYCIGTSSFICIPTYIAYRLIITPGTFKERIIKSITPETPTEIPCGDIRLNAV
Test: Displacement of [125I]RTI-55 from human SERT expressed in HEK293 cells
Give the number; nM is assumed, so skip it.

Guide cases for IC50, answers given:
INSERT INTO results (compound, quantity_name, measured_result) VALUES
  ('CN(C)C[C@@H]1CCC[C@@H]1c1c[nH]c2ccc(C#N)cc12', 'IC50', 1.2),
  ('CN(C)C[C@H]1CCC[C@H]1c1c[nH]c2ccc(C#N)cc12', 'IC50', 130),
  ('N#Cc1ccc2[nH]cc([C@H]3CCC[C@@H]3CN3CCCC3)c2c1 (racemic)', 'IC50', 22),
  ('CCN(CC)C[C@H]1CCC[C@@H]1c1c[nH]c2ccc(C#N)cc12 (racemic)', 'IC50', 240);

Given the compound CCN(C)C[C@H]1CCC[C@@H]1c1c[nH]c2ccc(C#N)cc12 (racemic) , what is its reported IC50?
10

====

Biological target: Sodium-dependent serotonin transporter (Homo sapiens, UniProt P31645)
Test: Displacement of [125I]RTI-55 from human SERT expressed in HEK293 cells
Quick list: log10(IC50) per entry.
The base-10 logarithm of IC50, taken with IC50 in nM, is what appears here.

Sample CNC[C@H]1CCC[C@@H]1c1c[nH]c2ccc(C#N)cc12 (racemic) — what was its log10(IC50)?
0.85

Another molecule: `CN(C)C[C@@H]1CCC[C@H]1c1c[nH]c2ccc(C#N)cc12`
1.76

Record: `CN(C)C[C@H]1C[C@@H]1c1c[nH]c2ccc(C#N)cc12`
-0.44

For CN(Cc1ccccc1)C[C@H]1CCC[C@@H]1c1c[nH]c2ccc(C#N)cc12 (racemic) then?
1.93

Repeat with `CN(C)C[C@H]1CCC[C@@H]1c1c[nH]c2ccc(C#N)cc12`
-0.89

Also CN(C)C[C@H]1CCC[C@@H]1c1c[nH]c2ccc(C#N)cc12 (racemic) , if possible.
-0.49

// next record CCNC[C@H]1CCC[C@@H]1c1c[nH]c2ccc(C#N)cc12 (racemic)
2.23

Please do the same for CN(C)C[C@@H]1CCC[C@@H]1c1c[nH]c2ccc(C#N)cc12 (racemic) as well.
0.41

====

Molecular target: Sodium-dependent noradrenaline transporter (Homo sapiens)
Sequence (P23975 whole entry): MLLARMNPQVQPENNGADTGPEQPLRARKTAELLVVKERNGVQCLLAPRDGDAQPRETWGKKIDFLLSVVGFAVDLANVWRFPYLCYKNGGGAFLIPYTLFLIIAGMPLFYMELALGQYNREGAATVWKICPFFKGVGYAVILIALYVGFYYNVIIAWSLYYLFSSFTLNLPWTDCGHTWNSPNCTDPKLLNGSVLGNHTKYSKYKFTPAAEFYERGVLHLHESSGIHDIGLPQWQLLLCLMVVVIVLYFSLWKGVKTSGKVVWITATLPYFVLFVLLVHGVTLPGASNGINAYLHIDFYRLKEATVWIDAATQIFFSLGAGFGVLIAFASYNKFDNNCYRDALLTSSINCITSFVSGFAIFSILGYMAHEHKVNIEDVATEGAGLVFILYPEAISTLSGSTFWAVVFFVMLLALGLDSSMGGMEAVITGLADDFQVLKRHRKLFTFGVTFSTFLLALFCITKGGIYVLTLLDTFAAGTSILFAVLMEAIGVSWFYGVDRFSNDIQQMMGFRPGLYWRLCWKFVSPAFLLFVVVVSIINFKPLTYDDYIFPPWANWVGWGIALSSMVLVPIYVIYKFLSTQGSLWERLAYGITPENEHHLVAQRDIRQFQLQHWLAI
Assay: Displacement of [125I]nisoxetine from human NET expressed in HEK293 cells
quantity name: pIC50
# pIC50 is unitless: minus log10 of the molar concentration; print number only

What reported pIC50 corresponds to `CN(C)C[C@H]1C[C@@H]1c1c[nH]c2ccc(C#N)cc12` on Sodium-dependent noradrenaline transporter (Homo sapiens)?
5.04

Now the same for `CN(C)C[C@H]1CCC[C@@H]1c1c[nH]c2ccc(C#N)cc12`
5.10

====

Catalogue of molecules with associated pIC50
Molecular target: Sodium-dependent dopamine transporter (Homo sapiens, UniProt Q01959)
Sequence (Q01959 whole entry): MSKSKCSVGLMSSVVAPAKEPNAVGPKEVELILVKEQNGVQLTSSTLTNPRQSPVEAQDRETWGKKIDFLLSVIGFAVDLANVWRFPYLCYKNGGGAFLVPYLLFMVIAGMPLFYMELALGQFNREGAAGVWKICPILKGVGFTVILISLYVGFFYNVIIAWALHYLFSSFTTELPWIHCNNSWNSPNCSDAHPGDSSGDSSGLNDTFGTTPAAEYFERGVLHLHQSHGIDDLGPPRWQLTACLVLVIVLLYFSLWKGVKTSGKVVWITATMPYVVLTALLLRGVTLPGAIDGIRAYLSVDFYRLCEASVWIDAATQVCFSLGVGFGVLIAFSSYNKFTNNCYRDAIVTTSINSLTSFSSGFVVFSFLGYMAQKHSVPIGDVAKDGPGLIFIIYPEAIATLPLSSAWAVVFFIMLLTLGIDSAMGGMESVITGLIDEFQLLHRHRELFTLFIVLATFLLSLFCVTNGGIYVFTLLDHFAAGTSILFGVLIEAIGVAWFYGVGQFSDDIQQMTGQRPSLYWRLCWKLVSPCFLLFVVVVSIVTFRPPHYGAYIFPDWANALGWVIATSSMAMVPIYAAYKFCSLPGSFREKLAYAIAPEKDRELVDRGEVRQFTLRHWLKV
Assay: Displacement of [125I]RTI-55 from human DAT expressed in HEK293 cells
Recall that pIC50 is obtained by taking minus log10 of the concentration measured in molar.

INSERT INTO results (smiles_str, quantity_name, measured_result) VALUES
  ('CN(C)C[C@H]1CCC[C@@H]1c1c[nH]c2ccc(C#N)cc12', 'pIC50', 6.16);

Shift focus to the following entry.
Form: Entry = `CN(C)C[C@H]1C[C@@H]1c1c[nH]c2ccc(C#N)cc12` | System = Sodium-dependent dopamine transporter (Homo sapiens, UniProt Q01959) | pIC50 = ____
5.38
